System: BT-549 breast
Assay: NCI tumour cell line growth inhibition, 48 h
Classify by measured TGI: satisfied if it is equal to or exceeds 20 µM, not satisfied if it is smaller.

Sample answers from the record:
| Molecule | Class Name |
| --- | --- |
| FC(F)(F)c1[nH]ncc1-c1nc2ccc3[nH]ncc3c2c2c1CCCC2 | not satisfied |
| C/C(=C1\C(=O)C(c2ccccc2)N(c2ccccc2)C1=O)c1ccc(Cl)cc1 (centres undefined) | satisfied |
| CC(=O)NC1=C(Sc2ccc(Cl)cc2)C(=O)c2ccccc2C1=O | not satisfied |
| CCc1ncnc2cc(OCC3CO3)c(OC)cc12 (centres undefined) | not satisfied |
| CSc1nc(N)c2c(n1)NC(c1ccccc1)C1CCc3ccccc3C1=N2 (centres undefined) | satisfied |
| O=S(=O)(O)c1ccccc1N=Nc1ccc(N=Nc2c(O)ccc3ccccc23)c(S(=O)(=O)O)c1 | satisfied |
| COc1ccc(/C=C2\CN(C)CC3C2=NN(c2ccccc2)C3c2ccc(OC)cc2)cc1 (centres undefined) | satisfied |
| CC(=O)OC1[C@@H](OC(C)=O)CN(OCc2ccccc2)C[C@H]1OC(C)=O (some centres undefined) | satisfied |
| CC(=O)OC1OC(c2ccoc2)C[C@@]12C1CCC3O[C@]3(C)[C@]1(C)C[C@H](OC(C)=O)[C@H]2C (some centres undefined) | satisfied |
| Cc1ccc(NC(=O)/C(=N\NC(N)=O)c2c(O)c3ccccc3[nH]c2=O)cc1 | satisfied |

Query: Exam item: decide whether the reported TGI for NC(CO)C(=O)NCC(=O)O (centres undefined) is at least 20 µM.
Response: satisfied

Query: What would you report for Oc1ccccc1C=Nc1ccccc1N=Cc1ccccc1O.[Cu+2] ?
Response: not satisfied

Query: Same question for CC(=O)/C(=C\c1c(-c2ccccc2)[nH]c2ccccc12)S(=O)(=O)c1ccccc1 please.
Response: not satisfied

Query: Thanks! And CC1(C)N=C(N)N=C(N)N1c1ccc(Cl)c(Cl)c1 ?
Response: satisfied

Query: Likewise for O=C1C=C2CC[C@H]3[C@@H]4CC[C@H](Oc5c6ccccc6nc6ccccc56)[C@H]4CC[C@@H]3[C@H]2CC1 ?
Response: satisfied

Query: Likewise for CC1(C)CC(=O)c2c(ccc(C(=O)C[C@@H](N)CO)c2N)O1 ?
Response: not satisfied

Query: Consider next the molecule Cc1ccc(C)c2c(N=Nc3ccccc3[N+](=O)[O-])c(O)[nH]c12 in the same way.
Response: satisfied

Query: Item: CC(C)(O)CCc1ccc(O)c2c(=O)c3c(O)c4c(cc3oc12)O[C@H]1OC=C[C@@]41O
Response: satisfied

Query: Moving on to CCN(CC)CCNC(=O)c1nn(-c2ccc(Cl)cc2)c2c1CCc1cc(OC)ccc1-2
Response: satisfied
